Tested on: MCF7 breast
Test: NCI-60 one-dose screen, 48 h (100 = growth as untreated, 0 = no growth, -100 = all killed)
Conditions: 10 µM unless noted
This is part of a sample that, as a whole, favours compounds with a hit. Of some 83,000 tested, about 20% had one in any assay. Calls of active or inactive are those of the source. The calls were made as follows: active = growth percent below 10; inactive = the rest.
Would you mind telling me the reported growth of each entry?

// known answers, use as guide
{"Compound": "O=c1[nH]nc(SC2CCCCC2)c(=O)[nH]1", "growth": "97.5% (inactive)"}
{"Compound": "COc1cc([C@@H]2c3cc4c(cc3[C@H](O)[C@H]3COC(=O)[C@H]23)OCO4)cc(OC)c1OC", "growth": "5.76% (active)"}
{"Compound": "COc1cc2nn(-c3ccccc3N)nc2cc1OC", "growth": "90.7% (inactive)"}
{"Compound": "CN(C)c1ccc(C(c2ccc(O)cc2)c2ccc(N(C)C)cc2)cc1", "growth": "78.6% (inactive)"}
{"Compound": "CN(C)C(=O)Oc1cccc([N+](C)(C)C)c1", "growth": "87% (inactive)"}

List growth for every entry below, keeping the order given.
1. O=[N+]([O-])c1ccc(Cl)c(S(=O)(=O)O)c1
2. C=CC(O)CCC (stereo unspecified)
3. O=C(O)c1ccc(S(=O)(=O)O)cc1
4. CCOC(=O)c1ccc(NC(=S)P(=O)(c2ccccc2)c2ccccc2)cc1

Result:
98.4% (inactive)
95.3% (inactive)
96.2% (inactive)
100% (inactive)

State the recorded growth for every item in the following list.
1. CC(=O)OC(OC(C)=O)C1CCCO1 (stereo unspecified)
2. COc1ccc(/C=C/c2cccc[n+]2C)cc1
3. CN1C(=O)CN2CCc3ccccc3C2c2cc(Cl)ccc21 (stereo unspecified)
4. CC1=CC(C)(C)NC(=S)N1c1ccc(S(=O)(=O)O)c2cccc(S(=O)(=O)O)c12

Result:
1: 92.1% (inactive); 2: 96% (inactive); 3: 84.5% (inactive); 4: 108% (inactive)

Would you be so kind as to report growth for each listed record?
1. CC1=C(/C=C/C(C)=C/C=C/C(C)=C/CO)C(C)(C)CCC1
2. COC(=O)c1cccc(Br)c1
3. OC(c1ccccn1)C(O)c1ccccn1 (stereo unspecified)
4. CC(C)(O)C#CC#CC(C)(C)O
5. N#Cc1ccc(NC(=O)Nc2cccc(C#N)c2)cc1
6. CCc1nn(Cc2ccccc2)c2nc(C)c(CCc3ccccc3)c(Cl)c12
7. O=C1NC(=O)C2C(=O)NC(=O)C1C21CCc2ccccc21 (stereo unspecified)

Result:
125% (inactive)
116% (inactive)
101% (inactive)
101% (inactive)
82.8% (inactive)
82.7% (inactive)
93.1% (inactive)

Hey, can you go through the list below and give me growth for every item?
1. OCCN1CCOCC1
2. Cc1cc(/C=C/c2ccc3cc(N(C)C)ccc3[n+]2C)c(C)n1-c1ccccc1
3. CCOc1ccc2[nH]c(=S)sc2c1
4. CCOC(=O)/C(C#N)=C/c1cccc(C)c1
5. NC(=O)NC(=O)c1ccc(Cl)cc1
6. CCOc1ccc(Br)cc1/C=N\N=C\c1cc(Br)ccc1OCC
7. CCOC(=O)c1cc(/C=C/c2cccc(Cl)c2)on1

Result:
1: 94.8% (inactive); 2: -11.6% (active); 3: 102% (inactive); 4: 91.3% (inactive); 5: 95.4% (inactive); 6: 101% (inactive); 7: 13.9% (inactive)

Measured values drawn from PubChem BioAssay (NCI) for this set.
